PROTOCOL_SUMMARY: AUC (0 to infinity) in Sprague-Dawley rat at 3 mg/kg, po measured upto 24 hrs by […] analysis
Format: ADME, organism-based
EXPERIMENTAL_CONDITIONS: in vivo
READOUT_LABEL: AUC(0-inf)

Exercise: Any idea what its AUC(0-inf) is? The compound is Cc1ccc(-c2ccc3c(ccc4sc5c(c43)NC[C@@H](C)NC5=O)n2)cn1
Solution: 1.8 µM·h

###

TESTED_SYSTEM: Receptor-interacting serine/threonine-protein kinase 2 (Homo sapiens)
Sequence (O43353 whole entry): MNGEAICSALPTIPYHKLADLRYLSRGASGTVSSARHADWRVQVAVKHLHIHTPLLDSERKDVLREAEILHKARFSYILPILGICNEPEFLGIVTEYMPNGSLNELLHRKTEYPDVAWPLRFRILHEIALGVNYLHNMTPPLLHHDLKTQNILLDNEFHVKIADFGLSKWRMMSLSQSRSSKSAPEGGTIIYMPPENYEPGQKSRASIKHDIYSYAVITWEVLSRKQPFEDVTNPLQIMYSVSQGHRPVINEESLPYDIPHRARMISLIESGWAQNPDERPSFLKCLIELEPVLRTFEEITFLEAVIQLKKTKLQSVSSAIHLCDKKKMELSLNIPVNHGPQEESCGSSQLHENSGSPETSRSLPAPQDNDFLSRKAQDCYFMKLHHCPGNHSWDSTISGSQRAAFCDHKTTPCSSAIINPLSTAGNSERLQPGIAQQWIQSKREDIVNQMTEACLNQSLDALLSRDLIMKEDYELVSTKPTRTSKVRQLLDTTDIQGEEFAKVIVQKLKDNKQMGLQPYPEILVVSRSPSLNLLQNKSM
READOUT_LABEL: IC50
Lab note: write values as number then unit, every time.

Exercise: Any idea what its IC50 is? The compound is Cc1ccc(-c2ccc3c(ccc4sc5c(c43)NC[C@@H](C)NC5=O)n2)cn1
Solution: 590 nM

###

PROTOCOL_SUMMARY: AUC in chronic SCW-induced arthritis Lewis rat model plasma at ED80 concentration
Assay type: ADME, cell-free
READOUT_LABEL: AUC (µM·h)
# number only, unit µM·h dropped from output

Exercise: Any idea what its AUC is? The compound is Cc1ccc(-c2ccc3c(ccc4sc5c(c43)NC[C@@H](C)NC5=O)n2)cn1
Solution: 117

###

TESTED_SYSTEM: Cyclin-dependent kinase 1/cyclin B1 (Homo sapiens)
Sequence (P06493 whole entry): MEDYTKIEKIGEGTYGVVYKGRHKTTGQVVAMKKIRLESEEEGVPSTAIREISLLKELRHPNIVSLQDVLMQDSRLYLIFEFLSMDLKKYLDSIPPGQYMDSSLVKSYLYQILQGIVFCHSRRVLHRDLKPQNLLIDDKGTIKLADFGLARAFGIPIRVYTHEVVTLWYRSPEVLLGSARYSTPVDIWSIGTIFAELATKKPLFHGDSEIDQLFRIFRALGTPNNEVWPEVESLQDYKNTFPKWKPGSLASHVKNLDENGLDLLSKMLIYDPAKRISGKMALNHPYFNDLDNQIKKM
Sequence (P14635 whole entry, further chain): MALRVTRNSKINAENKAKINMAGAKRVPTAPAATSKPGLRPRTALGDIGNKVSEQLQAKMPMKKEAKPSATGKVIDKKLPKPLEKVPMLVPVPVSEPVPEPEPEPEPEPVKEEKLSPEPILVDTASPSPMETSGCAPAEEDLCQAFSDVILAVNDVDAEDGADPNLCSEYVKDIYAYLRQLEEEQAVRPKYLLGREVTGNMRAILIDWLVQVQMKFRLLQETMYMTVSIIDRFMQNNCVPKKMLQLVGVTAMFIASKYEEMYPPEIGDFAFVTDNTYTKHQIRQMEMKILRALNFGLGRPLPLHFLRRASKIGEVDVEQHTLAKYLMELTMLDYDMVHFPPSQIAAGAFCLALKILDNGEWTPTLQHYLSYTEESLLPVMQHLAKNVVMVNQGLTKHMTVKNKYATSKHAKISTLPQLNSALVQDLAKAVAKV
PROTOCOL_SUMMARY: Inhibition of CDK1/cycB (unknown origin)
READOUT_LABEL: pIC50
Keep it numeric: pIC50 is minus log10 of the concentration in mol/L.

Exercise: Which measured pIC50 belongs to Cc1ccc(-c2ccc3c(ccc4sc5c(c43)NC[C@@H](C)NC5=O)n2)cn1 , tested on Cyclin-dependent kinase 1/cyclin B1 (Homo sapiens)?
Solution: 6.45

###

TESTED_SYSTEM: MAP kinase-activated protein kinase 2 (Homo sapiens, UniProt P49137)
Sequence (P49137 whole entry, the tested form may be a part): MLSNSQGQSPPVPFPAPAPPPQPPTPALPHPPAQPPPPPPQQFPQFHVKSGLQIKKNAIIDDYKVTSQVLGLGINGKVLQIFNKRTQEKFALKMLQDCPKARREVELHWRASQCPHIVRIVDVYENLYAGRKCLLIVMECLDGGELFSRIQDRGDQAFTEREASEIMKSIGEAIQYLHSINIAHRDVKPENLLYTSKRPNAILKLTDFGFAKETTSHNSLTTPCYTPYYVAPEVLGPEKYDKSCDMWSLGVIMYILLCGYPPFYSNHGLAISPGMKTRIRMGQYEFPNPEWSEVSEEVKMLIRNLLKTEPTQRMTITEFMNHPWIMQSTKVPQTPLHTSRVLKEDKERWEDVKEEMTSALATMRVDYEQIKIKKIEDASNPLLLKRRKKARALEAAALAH
PROTOCOL_SUMMARY: Binding affinity to recombinant N-terminal truncated MK2 (45 to 371 residues) (unknown origin) expressed in Escherichia coli assessed as inhibition constant measured after 15 mins by surface plasmon resonance spectroscopy analysis
READOUT_LABEL: Ki (nM)
# number only, unit nM dropped from output

Exercise: Any idea what its Ki is? The molecule is Cc1ccc(-c2ccc3c(ccc4sc5c(c43)NC[C@@H](C)NC5=O)n2)cn1
Solution: 3

###

PROTOCOL_SUMMARY: Plasma protein binding in human
Format: ADME, cell-free
EXPERIMENTAL_CONDITIONS: read-out: PPB (converted)
READOUT_LABEL: fraction unbound
Reply with just the number.

Exercise: Any idea what its fraction unbound is? The molecule is Cc1ccc(-c2ccc3c(ccc4sc5c(c43)NC[C@@H](C)NC5=O)n2)cn1
Solution: 0.064

###

TESTED_SYSTEM: Cyclin-dependent kinase 5/CDK5 activator 1 (Homo sapiens, UniProt Q00535)
Sequence (Q00535 whole entry): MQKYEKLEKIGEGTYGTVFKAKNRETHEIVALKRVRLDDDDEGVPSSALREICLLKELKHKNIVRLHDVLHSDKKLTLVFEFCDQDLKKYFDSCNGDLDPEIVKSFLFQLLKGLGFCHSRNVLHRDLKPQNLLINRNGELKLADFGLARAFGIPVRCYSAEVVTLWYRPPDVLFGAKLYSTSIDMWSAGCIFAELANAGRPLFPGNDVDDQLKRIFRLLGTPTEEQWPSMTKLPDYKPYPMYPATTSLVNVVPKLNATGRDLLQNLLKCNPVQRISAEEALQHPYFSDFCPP
Sequence (Q15078 whole entry, further chain): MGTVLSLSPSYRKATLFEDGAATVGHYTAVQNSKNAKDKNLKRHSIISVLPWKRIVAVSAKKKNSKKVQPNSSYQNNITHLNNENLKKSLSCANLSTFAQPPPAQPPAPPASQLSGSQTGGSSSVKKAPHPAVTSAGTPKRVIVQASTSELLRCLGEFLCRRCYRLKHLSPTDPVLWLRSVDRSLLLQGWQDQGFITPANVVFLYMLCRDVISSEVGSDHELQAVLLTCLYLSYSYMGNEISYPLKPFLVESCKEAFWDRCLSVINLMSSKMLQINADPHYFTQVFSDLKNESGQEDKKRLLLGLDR
PROTOCOL_SUMMARY: Inhibition of CDK5/p35 (unknown origin)
READOUT_LABEL: IC50 (nM)
# number only, unit nM dropped from output

Exercise: Any idea what its IC50 is? The compound is Cc1ccc(-c2ccc3c(ccc4sc5c(c43)NC[C@@H](C)NC5=O)n2)cn1
Solution: 902

###

TESTED_SYSTEM: MAP kinase-activated protein kinase 5 (Homo sapiens)
Sequence (Q8IW41 whole entry): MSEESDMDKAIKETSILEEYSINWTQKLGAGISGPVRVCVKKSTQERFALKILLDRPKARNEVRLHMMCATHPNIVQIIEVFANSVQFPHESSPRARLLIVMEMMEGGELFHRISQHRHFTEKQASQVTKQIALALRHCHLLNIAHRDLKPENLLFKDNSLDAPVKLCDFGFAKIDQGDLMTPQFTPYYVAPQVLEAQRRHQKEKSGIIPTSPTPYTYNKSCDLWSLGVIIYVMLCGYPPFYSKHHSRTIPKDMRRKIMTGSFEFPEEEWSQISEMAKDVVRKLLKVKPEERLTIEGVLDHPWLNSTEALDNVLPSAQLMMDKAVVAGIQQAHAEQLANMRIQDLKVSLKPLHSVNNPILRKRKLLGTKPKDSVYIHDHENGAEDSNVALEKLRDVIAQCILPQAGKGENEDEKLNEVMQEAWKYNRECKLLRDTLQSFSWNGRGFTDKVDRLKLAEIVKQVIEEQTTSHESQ
PROTOCOL_SUMMARY: Inhibition of recombinant PRAK (unknown origin) expressed in Escherichia coli using KKKALSRQLSVAA as substrate incubated for 1 hr followed by substrate addition in presence of ATP
READOUT_LABEL: IC50

Exercise: Any idea what its IC50 is? The compound is Cc1ccc(-c2ccc3c(ccc4sc5c(c43)NC[C@@H](C)NC5=O)n2)cn1
Solution: 5 nM

The measured values listed here are drawn from ChEMBL document CHEMBL5678801.
